// Emax lookup, one value per entry
system: F508delCFTR (Homo sapiens, UniProt P13569, DEL508-508)
Construct: expressed in transfected cells; host or cells: CFBE41o- human lung-derived epithelial cells (CFBE4lo-F508delCFTR-HRP), doxycycline-inducible
Sequence (P13569 with tags, fused parts or gaps DEL508-508): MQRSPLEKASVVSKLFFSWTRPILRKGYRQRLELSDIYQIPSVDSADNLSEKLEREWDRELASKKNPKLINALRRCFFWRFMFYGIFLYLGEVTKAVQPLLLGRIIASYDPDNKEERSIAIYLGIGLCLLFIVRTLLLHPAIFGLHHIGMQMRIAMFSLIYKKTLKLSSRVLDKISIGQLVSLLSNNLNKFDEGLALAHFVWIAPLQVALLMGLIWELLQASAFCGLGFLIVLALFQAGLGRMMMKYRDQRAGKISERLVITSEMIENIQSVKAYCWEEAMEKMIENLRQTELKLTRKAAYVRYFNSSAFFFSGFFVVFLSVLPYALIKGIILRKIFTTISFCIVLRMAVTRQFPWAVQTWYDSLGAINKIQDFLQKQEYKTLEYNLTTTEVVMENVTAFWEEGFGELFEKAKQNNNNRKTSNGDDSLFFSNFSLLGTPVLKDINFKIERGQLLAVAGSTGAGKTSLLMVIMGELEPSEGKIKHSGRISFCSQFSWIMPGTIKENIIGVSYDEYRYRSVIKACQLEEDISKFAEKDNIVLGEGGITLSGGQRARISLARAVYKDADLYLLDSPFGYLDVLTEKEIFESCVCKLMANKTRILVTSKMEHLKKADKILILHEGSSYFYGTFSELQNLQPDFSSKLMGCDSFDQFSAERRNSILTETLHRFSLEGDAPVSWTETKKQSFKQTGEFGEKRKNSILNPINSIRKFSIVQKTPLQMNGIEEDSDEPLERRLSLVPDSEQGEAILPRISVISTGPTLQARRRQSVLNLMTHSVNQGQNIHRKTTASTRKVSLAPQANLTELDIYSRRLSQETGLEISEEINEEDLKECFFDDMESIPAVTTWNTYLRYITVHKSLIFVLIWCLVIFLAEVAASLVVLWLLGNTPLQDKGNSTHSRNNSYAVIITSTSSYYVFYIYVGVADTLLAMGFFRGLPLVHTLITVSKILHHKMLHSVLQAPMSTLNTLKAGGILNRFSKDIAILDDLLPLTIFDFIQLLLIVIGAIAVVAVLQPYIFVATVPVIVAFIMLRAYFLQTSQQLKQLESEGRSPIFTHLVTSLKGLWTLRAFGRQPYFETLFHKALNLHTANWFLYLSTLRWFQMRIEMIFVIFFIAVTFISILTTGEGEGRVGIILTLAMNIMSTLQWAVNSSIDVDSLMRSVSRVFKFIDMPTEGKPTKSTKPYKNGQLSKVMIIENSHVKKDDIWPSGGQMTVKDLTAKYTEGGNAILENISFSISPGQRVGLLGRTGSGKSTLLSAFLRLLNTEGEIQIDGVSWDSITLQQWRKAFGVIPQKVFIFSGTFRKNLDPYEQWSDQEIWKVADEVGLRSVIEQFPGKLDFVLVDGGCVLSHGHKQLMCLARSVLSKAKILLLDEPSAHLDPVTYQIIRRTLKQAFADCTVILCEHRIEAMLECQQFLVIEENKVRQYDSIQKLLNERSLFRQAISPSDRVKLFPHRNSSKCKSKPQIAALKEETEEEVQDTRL
assay explanation: Cell Surface Expression-Horse Radish Peroxidase (CSE-HRP) Assay;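 as to Maximum % activity (without co-corrector): percent of the 2 µM on-plate positive control corrector response above DMSO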
Format: cell-based
assay context: without co-corrector; maximum at any tested concentration, normalized to on-plate positive control; read-out: Maximum % activity (without co-corrector)
test readout: Emax

compound: COc1ccc(C(C)(C)C)cc1CN[C@H]1[C@H](C(C)(C)C)[C@@H](C(=O)O)N(C(=O)c2ccc3cccc(F)c3n2)[C@H]1c1ccccc1 [Example I-93]
meas value: 100 to 200%
--
compound: COc1ccc(C(C)(C)C)cc1CN[C@H]1[C@H](C(C)(C)C)[C@@H](C(=O)O)N(C(=O)C2CCCN(C)C2=O)[C@H]1c1ccccc1 (single isomer, unassigned) [Example I-191]
meas value: > 200%
--
compound: COc1ccc(C23CC(C2)C3)cc1CN[C@H]1[C@H](C(C)(C)C)[C@@H](C(=O)O)N(C(=O)OC(C)C)[C@H]1c1cccnc1N(C)C [Example 64]
meas value: > 200%
--
compound: COc1ncc(C(F)(F)F)cc1CN[C@H]1[C@H](C(C)(C)C)[C@@H](C(=O)O)N(C(=O)OC(C)C)[C@H]1c1cccnc1OC(C)C [Example 79]
meas value: > 200%
--
compound: COc1ccc(C(F)(F)F)cc1CN[C@H]1[C@H](C(C)(C)C)[C@@H](C(=O)O)N(C(=O)C2CCC(C(F)(F)F)C2)[C@H]1c1ccccc1 (stereo partly drawn) [Example I-163]
meas value: 100 to 200%
--
compound: COc1ccc(C(C)(C)C)cc1CN[C@H]1[C@H](C(C)(C)C)[C@@H](C(=O)O)N(C(=O)C2CCCCC2)[C@H]1c1ccccc1F [Example 24]
meas value: > 200%

====

system: F508delCFTR (Homo sapiens, UniProt P13569, DEL508-508)
Construct: expressed in transfected cells; host or cells: CFBE41o- human lung-derived epithelial cells (CFBE4lo-F508delCFTR-HRP), doxycycline-inducible
assay explanation: Cell Surface Expression-Horse Radish Peroxidase (CSE-HRP) Assay
Format: cell-based
assay context: test compound without co-corrector; read-out: EC50 (without co-corrector)
pEC50: −log10 of the molar value.
test readout: pEC50

compound: COc1cc(CN[C@H]2[C@H](C(C)(C)C)[C@@H](C(=O)O)N(C(=O)C3CCCCC3)[C@H]2c2ccccc2)cc(OC)c1
system: F508delCFTR (Homo sapiens, UniProt P13569, DEL508-508)
test readout: pEC50
meas value: < 5.00
--
compound: COc1ccc(C(C)(C)C)cc1CN[C@H]1[C@H](C(C)(C)C)[C@@H](C(=O)O)N(C(=O)[C@H]2CCC[C@H](OC)C2)[C@H]1c1ccccc1
system: F508delCFTR (Homo sapiens, UniProt P13569, DEL508-508)
test readout: pEC50
meas value: 5.00 to 6.00
--
compound: COc1ccc(C(F)(F)F)cc1CN[C@H]1[C@H](C(C)(C)C)[C@@H](C(=O)O)N(C(=O)C2CCc3ccc(F)cc3O2)[C@H]1c1ccccc1 (stereo partly drawn)
system: F508delCFTR (Homo sapiens, UniProt P13569, DEL508-508)
test readout: pEC50
meas value: 5.00 to 6.00
--
compound: COc1ccc(SC(F)(F)F)cc1CN[C@H]1[C@H](C(C)(C)C)[C@@H](C(=O)O)N(C(=O)C2CCCCC2)[C@H]1c1ccccc1
system: F508delCFTR (Homo sapiens, UniProt P13569, DEL508-508)
test readout: pEC50
meas value: 5.00 to 6.00
--
compound: Cc1cc(C(F)(F)F)cc(N[C@@H]2[C@@H](C3CC3)[C@H](C(=O)O)N(C(=O)C3CCCCC3)[C@@H]2c2ccccc2)n1 (racemic)
system: F508delCFTR (Homo sapiens, UniProt P13569, DEL508-508)
test readout: pEC50
meas value: 5.00 to 6.00
--
compound: COc1ccc(C(C)(C)C)cc1CN[C@H]1[C@H](C(C)(C)C)[C@@H](C(=O)O)N(C(=O)[C@H]2COc3ccccc3O2)[C@H]1c1ccccc1
system: F508delCFTR (Homo sapiens, UniProt P13569, DEL508-508)
test readout: pEC50
meas value: 5.00 to 6.00

====

system: F508delCFTR (Homo sapiens, UniProt P13569, DEL508-508)
Construct: expressed in transfected cells; host or cells: CFBE41o- human lung-derived epithelial cells (CFBE4lo-F508delCFTR-HRP), doxycycline-inducible
assay explanation: Cell Surface Expression-Horse Radish Peroxidase (CSE-HRP) Assay;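 as to Maximum % activity (without co-corrector): percent of the 2 µM on-plate positive control corrector response above DMSO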
Assay type: cell-based
assay context: test compound without co-corrector; maximum at any tested concentration, normalized to on-plate positive control; read-out: Maximum % activity (without co-corrector)

compound: COc1ccc(C2(C)CCC2)cc1CN[C@H]1[C@H](C(C)(C)C)[C@@H](C(=O)O)N(C(=O)[C@H]2CCCCO2)[C@H]1c1cccnc1OC [III-234]
system: F508delCFTR (Homo sapiens, UniProt P13569, DEL508-508)
Emax: 100 to 200%
--
compound: CC(C)(C)[C@@H]1[C@@H](NCc2cc(Cl)ncc2O)[C@@H](c2ccccc2)N(C(=O)C2CCCCC2)[C@H]1C(=O)O (racemic) [III-73]
system: F508delCFTR (Homo sapiens, UniProt P13569, DEL508-508)
Emax: < 100%
--
compound: COc1ccc(C(C)(C)C)cc1CN[C@H]1[C@H](C(C)(C)C)[C@@H](C(=O)O)N(C(=O)[C@@H]2CCC[C@@H](OC)C2)[C@H]1c1cccnc1N(C)C (relative stereo) [II-449]
system: F508delCFTR (Homo sapiens, UniProt P13569, DEL508-508)
Emax: > 200%
--
compound: COc1ccc(C(C)(C)C)cc1CN[C@H]1[C@H](C(C)(C)C)[C@@H](C(=O)O)N(C(=O)C2CC2c2cccs2)[C@H]1c1ccccc1 (stereo partly drawn) [III-193]
system: F508delCFTR (Homo sapiens, UniProt P13569, DEL508-508)
Emax: > 200%
--
compound: COc1ncc(C2CCC2)cc1CN[C@H]1[C@H](C(C)(C)C)[C@@H](C(=O)O)N(C(=O)[C@@H]2CCCO2)[C@H]1c1ccccc1C(F)F [II-597]
system: F508delCFTR (Homo sapiens, UniProt P13569, DEL508-508)
Emax: 100 to 200%
--
compound: COc1ccc(Cl)cc1CN[C@@H]1[C@@H](C2CC2)[C@H](C(=O)O)N(C(=O)N(C(C)C)C(C)C)[C@@H]1c1ccccc1 (racemic) [III-48]
system: F508delCFTR (Homo sapiens, UniProt P13569, DEL508-508)
Emax: < 100%
--
compound: COCC1(c2ccc(OC)c(CN[C@H]3[C@H](C(C)(C)C)[C@@H](C(=O)O)N(C(=O)C4CCCCC4)[C@H]3c3ccccc3)c2)CC1 [II-420]
system: F508delCFTR (Homo sapiens, UniProt P13569, DEL508-508)
Emax: 100 to 200%
--
compound: CO[C@H](C(=O)N1[C@H](c2cccnc2N(C)C)[C@H](Nc2cc(C(F)(F)F)cc(C)n2)[C@@H](C(C)(C)C)[C@@H]1C(=O)O)c1ccccc1 (racemic) [III-90]
system: F508delCFTR (Homo sapiens, UniProt P13569, DEL508-508)
Emax: < 100%
--
compound: COc1cc(C(F)(F)F)ccc1CN[C@H]1[C@H](C(C)(C)C)[C@@H](C(=O)O)N(C(=O)OC(C)C)[C@H]1c1cccnc1N(C)C [II-514]
system: F508delCFTR (Homo sapiens, UniProt P13569, DEL508-508)
Emax: 100 to 200%
--
compound: CO[C@H](C(=O)N1[C@H](C(=O)O)[C@@H](C(C)(C)C)[C@H](Nc2cc(C(F)(F)F)cc(C)n2)[C@@H]1c1ccccc1)c1ccccc1 [III-103]
system: F508delCFTR (Homo sapiens, UniProt P13569, DEL508-508)
Emax: < 100%
--
compound: COc1ncc(-c2ccc(F)cc2F)cc1CN[C@H]1[C@H](C(C)(C)C)[C@@H](C(=O)O)N(C(=O)C2CCCCC2)[C@H]1c1cccnc1N(C)C [II-406]
system: F508delCFTR (Homo sapiens, UniProt P13569, DEL508-508)
Emax: 100 to 200%
--
compound: COc1ccc(-n2ncc(C(=O)N3[C@H](C(=O)O)[C@@H](C(C)(C)C)[C@H](NCc4cc(C(C)(C)C)ccc4OC)[C@@H]3c3ccccc3)c2C)cc1 [II-357]
system: F508delCFTR (Homo sapiens, UniProt P13569, DEL508-508)
Emax: > 200%

Cited source: patent US20180099931A1
